- Test system: MCF7
- test_protocol: Estrogenic activity in human MCF7 cells assessed as cell proliferation at 0.01 uM by MTS assay relative to basal level
- Assay type: ADME, cell-based
- applied_conditions: mcf7, 0.01 µM
As shown below, each of these compounds has a reported Activity value.
Write it as a number; the unit % goes unstated.

These solved cases illustrate the format of a correct answer.
CCN(Cc1ccc(Br)cc1)c1ccc(C(=O)N2CCc3ccc(O)cc3C2)cc1 ... 0
O=C(c1cccc(N(CCCO)Cc2ccccc2)c1)N1CCc2ccc(O)cc2C1 ... 0
O=C(c1ccc(N(CCCO)Cc2ccccc2)cc1)N1CCc2ccc(O)cc2C1 ... 0
CN(CCN1CCCCC1)c1ccc(C(=O)N2CCc3ccc(O)cc3C2)cc1 ... 2.1

[in] Fill in the blank: the reported Activity of CCCN(Cc1ccccc1)c1ccc(C(=O)N2CCc3ccc(O)cc3C2)cc1 is ____.
[out] 0

###

- test_protocol: Estrogenic activity in human Saos2 cells assessed as increase in alkaline phosphatase activity at 1 nM
- Format: ADME, cell-based
- applied_conditions: saos-2, 0.001 µM
As shown below, each of these compounds has a reported Activity value.
Write it as a number; the unit % goes unstated.

CCN(Cc1ccc(F)cc1)c1ccc(C(=O)N2CCc3ccc(O)cc3C2)cc1 ... 152
CC/C(=C(\c1ccccc1)c1ccc(OCCN(C)C)cc1)c1ccccc1 ... 143
O=C(c1ccc(N2CCc3ccccc3C2)cc1)N1CCc2ccc(O)cc2C1 ... 133
CC(C)CCN(CCC(C)C)c1ccc(C(=O)N2CCc3ccc(O)cc3C2)cc1 ... 133
C[C@]12CC[C@@H]3c4ccc(O)cc4CC[C@H]3[C@@H]1CC[C@@H]2O ... 148

[in] Fill in the blank: the reported Activity of CCN(Cc1ccncc1)c1ccc(C(=O)N2CCc3ccc(O)cc3C2)cc1 is ____.
[out] 133

[in] Fill in the blank: the reported Activity of CCN(Cc1ccccn1)c1ccc(C(=O)N2CCc3ccc(O)cc3C2)cc1 is ____.
[out] 147

[in] Fill in the blank: the reported Activity of O=C(c1ccc(N(Cc2ccccc2)Cc2ccco2)cc1)N1CCc2ccc(O)cc2C1 is ____.
[out] 133

[in] Fill in the blank: the reported Activity of CCN(Cc1cccnc1)c1ccc(C(=O)N2CCc3ccc(O)cc3C2)cc1 is ____.
[out] 133

###

- test_protocol: Estrogenic activity in human Saos2 cells assessed as cell proliferation at 1 uM
- Assay type: ADME, cell-based
- applied_conditions: saos-2, 1 µM
measured_quantity: Activity

These solved cases illustrate the format of a correct answer.
CCN(Cc1ccccn1)c1ccc(C(=O)N2CCc3ccc(O)cc3C2)cc1 ... 140%
O=C(c1ccc(N(Cc2ccccc2)Cc2ccco2)cc1)N1CCc2ccc(O)cc2C1 ... Toxic
O=C(c1ccc(N2CCc3ccccc3C2)cc1)N1CCc2ccc(O)cc2C1 ... Toxic
CCN(Cc1ccncc1)c1ccc(C(=O)N2CCc3ccc(O)cc3C2)cc1 ... Toxic
CCN(Cc1cccnc1)c1ccc(C(=O)N2CCc3ccc(O)cc3C2)cc1 ... Toxic
CC(C)CCN(CCC(C)C)c1ccc(C(=O)N2CCc3ccc(O)cc3C2)cc1 ... Toxic
C[C@]12CC[C@@H]3c4ccc(O)cc4CC[C@H]3[C@@H]1CC[C@@H]2O [ESTRADIOL] ... 144%

[in] Fill in the blank: the reported Activity of CCN(Cc1ccc(F)cc1)c1ccc(C(=O)N2CCc3ccc(O)cc3C2)cc1 is ____.
[out] Toxic

Each recorded value in this set is attributed to ChEMBL document CHEMBL3132826.
